target: human TRPM8 (Homo sapiens); construct: expressed in transfected cells; host or cells: Chinese hamster ovary (CHO) cells, T-REx tetracycline-inducible system, co-transfected with aequorin; experiment: Luminescence readout assay for measuring intracellular calcium, icilin activation; format: cell-based; details: CHO cells expressing human TRPM8, aequorin luminescence, 1 μM icilin activation; read-out: hTRPM8 IC50
Sequence (Q7Z2W7 whole entry): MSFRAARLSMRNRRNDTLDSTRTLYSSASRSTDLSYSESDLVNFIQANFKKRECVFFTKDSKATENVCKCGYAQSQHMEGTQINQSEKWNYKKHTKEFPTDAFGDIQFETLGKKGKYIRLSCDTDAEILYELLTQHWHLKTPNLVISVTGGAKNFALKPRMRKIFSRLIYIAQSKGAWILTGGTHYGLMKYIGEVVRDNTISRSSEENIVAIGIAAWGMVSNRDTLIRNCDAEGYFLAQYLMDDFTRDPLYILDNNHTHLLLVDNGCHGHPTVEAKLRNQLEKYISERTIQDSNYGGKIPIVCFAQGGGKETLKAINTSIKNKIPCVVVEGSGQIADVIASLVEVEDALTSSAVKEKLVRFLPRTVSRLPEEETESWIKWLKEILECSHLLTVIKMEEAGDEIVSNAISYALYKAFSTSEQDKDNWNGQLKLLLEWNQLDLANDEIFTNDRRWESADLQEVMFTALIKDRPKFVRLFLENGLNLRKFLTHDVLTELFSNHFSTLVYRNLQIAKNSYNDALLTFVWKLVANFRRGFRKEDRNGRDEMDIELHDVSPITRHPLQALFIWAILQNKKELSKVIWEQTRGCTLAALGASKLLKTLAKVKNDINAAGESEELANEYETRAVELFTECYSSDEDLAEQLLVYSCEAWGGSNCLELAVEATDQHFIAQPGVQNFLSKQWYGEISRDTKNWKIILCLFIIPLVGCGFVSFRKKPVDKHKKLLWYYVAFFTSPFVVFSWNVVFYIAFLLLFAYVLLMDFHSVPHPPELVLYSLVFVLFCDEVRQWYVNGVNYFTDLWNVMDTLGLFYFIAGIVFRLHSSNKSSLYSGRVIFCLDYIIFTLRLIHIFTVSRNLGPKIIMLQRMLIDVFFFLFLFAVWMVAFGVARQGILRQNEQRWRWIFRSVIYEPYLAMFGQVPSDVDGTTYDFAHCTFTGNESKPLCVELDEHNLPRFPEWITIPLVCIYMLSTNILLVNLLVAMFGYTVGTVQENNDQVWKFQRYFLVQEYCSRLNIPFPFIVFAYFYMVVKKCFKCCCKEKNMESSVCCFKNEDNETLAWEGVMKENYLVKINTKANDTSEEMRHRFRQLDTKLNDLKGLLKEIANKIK
Collected IC50 values appear next to each entry.
Give the value in nM but do not write nM after it.

COMPOUND: CC(=O)Oc1ccc(C(=O)N[C@@H](c2ccc(C(F)(F)F)cc2)c2ncccc2F)cc1N
ASSAY_TARGET: human TRPM8 (Homo sapiens)
IC50 / nM: 56.4
--
COMPOUND: O=C(N[C@@H](c1ccc(C(F)(F)F)cc1)c1ncccc1C(F)(F)F)c1cccc(I)c1
ASSAY_TARGET: human TRPM8 (Homo sapiens)
IC50 / nM: 70

Lab note: need IC50 for CC(=O)Nc1ccc(C(=O)N[C@@H](c2ccc(OC(F)(F)F)c(F)c2)c2ncccc2F)cc1O on human TRPM8 (Homo sapiens), anyone have it?
136

Lab note: need IC50 for N#Cc1ccc(C(=O)N[C@@H](c2ccc(C(F)(F)F)cc2)c2ncccc2F)cc1 [Example 167] on human TRPM8 (Homo sapiens), anyone have it?
21.5

Lab note: need IC50 for O=C(N[C@@H](c1ccc(C(F)(F)F)cc1)c1ncccc1C(F)(F)F)c1ccc(-c2nnn[nH]2)cc1 on human TRPM8 (Homo sapiens), anyone have it?
160

Lab note: need IC50 for N#Cc1ccc(C(=O)N[C@@H](c2ccc(C(F)(F)F)cc2)c2ncccc2C(F)(F)F)cn1 on human TRPM8 (Homo sapiens), anyone have it?
67.5

Lab note: need IC50 for O=C1CCc2cc(C(=O)N[C@@H](c3ccc(OC(F)(F)F)c(F)c3)c3ncccc3F)ccc2N1 on human TRPM8 (Homo sapiens), anyone have it?
15.9

Lab note: need IC50 for COc1ccc(C(=O)N[C@@H](c2ccc(C(F)(F)F)cc2)c2ncccc2F)cn1 on human TRPM8 (Homo sapiens), anyone have it?
12.3

Values from patent US8710043B2
